The reported numbers originate from PubChem BioAssay (NCI).

Give TGI for every item shown.
System: COLO 205 colon
Assay: NCI tumour cell line growth inhibition, 48 h
Entry rule: numbers only, all in µM.

// sample COC(=O)c1cc(C#Cc2cc(OC)ccc2OC)ccc1OC , its TGI was 52.3

// sample CCC1C(c2cc(OC)c(OC)c(OC)c2)c2cc3c(cc2OC1N1CCOCC1)OCO3 (stereo not given) , its TGI was 22.4

// sample Cc1cn(Cc2ccccc2CCl)c(=O)[nH]c1=O , its TGI was 45.7

====

Give TGI for every item shown.
Tested on: SN12C renal
Assay: NCI tumour cell line growth inhibition, 48 h

// sample Cc1cccc(C(O)c2ccncc2)c1O (stereo not drawn) , its TGI was > 100 µM

// sample CC(=O)OCC1OC(n2ccc(=O)[nH]c2=O)C(OC(C)=O)C1OC(C)=O (stereo not drawn) , its TGI was > 100 µM

// sample Cc1ccc(C(O)c2cnc(C)n2Cc2ccccc2)cc1 (stereo not drawn) , its TGI was > 100 µM

// sample COc1cc(-c2cn(-c3ccc(Cl)cc3)c(C)c2C(=O)C(F)(F)F)cc(OC)c1OC , its TGI was > 100 µM

// sample O[C@@H]1C[C@@H]2N[C@@](O)(C[C@@H]2O)[C@H]1O , its TGI was > 100 µM

// sample COc1cc([C@@H]2c3cc4c(cc3[C@@H](NC(=O)c3ccccc3)C3COC(=O)[C@@H]32)OCO4)cc(OC)c1O (stereo partly drawn) , its TGI was 9.81 µM

// sample COc1cc[nH]c1/C=C1\C(=O)Nc2ccc(F)c(I)c21 , its TGI was > 25 µM

// sample CC(=O)[O-].CC(=O)[O-].[NH2-].[Pt+2].c1ccc2cnccc2c1 , its TGI was > 100 µM

// sample CSc1ccc(/C=C2\N=C(c3ccccc3)N(c3nc4ccc(Sc5ccccc5)cc4[nH]3)C2=O)cc1 , its TGI was > 84.2 µM

// sample CC(=O)c1cc([N+](=O)[O-])ccc1OCC(=O)O , its TGI was > 100 µM

// sample CCCCCCCCCCCCCCCCCCCCCC(=O)Nc1ccn(C2OC(CO)C(O)C2O)c(=O)n1 (stereo not drawn) , its TGI was > 100 µM

// sample Cc1cccc(NC(=S)N=Nc2c(O)[nH]c3ccccc23)c1 , its TGI was > 100 µM

// sample CN(C)C(=S)N=Nc1c(O)[nH]c2ccccc12 , its TGI was 17.9 µM

// sample O=C1/C(=C/c2ccc(O)cc2)COc2ccc(-c3ccccc3)cc21 , its TGI was 24.8 µM

// sample COc1cc(/C=C/C(=O)c2sc(Nc3ccccc3)nc2C)ccc1O , its TGI was > 100 µM

// sample CCc1cc(O)c(Cl)c(C)c1Cl , its TGI was 29.5 µM

// sample CC(=O)OC1c2ccccc2CCCCCCC12OCCO2 (stereo not drawn) , its TGI was > 100 µM

// sample CC12Cc3cc4c(cc3C1(c1ccc([N+](=O)[O-])cc1)OCCO2)OCO4 (stereo not drawn) , its TGI was > 100 µM

// sample ClCc1c(Cl)c(Cl)c(Cl)c(CCl)c1Cl , its TGI was 4.03 µM

// sample CC(C)(Br)C1(O)CCCN1C(=O)c1ccccc1 (stereo not drawn) , its TGI was > 100 µM

// sample CC(C)C[P+](c1ccccc1)(c1ccccc1)c1ccccc1 , its TGI was > 100 µM

// sample Oc1ccc(CCCCCCc2ccc(O)cc2)cc1 , its TGI was 24.3 µM

// sample CCCCCCCCCCCCCC(=O)CBr , its TGI was 43.3 µM
